Experiment: Maximum (saturation) solubility in 10 mM citric buffer, HPLC assay
Format: physicochemical
Conditions: 10 mM citric buffer, pH 6, aqueous buffer, thermodynamic from solid, pH 6, 68 mM NaCl, n = 2-3; read-out: Solubility
measured_property: solubility at 48 h

Need solubility at 48 h of CCCN(CCc1cccs1)[C@H]1CCc2c(O)cccc2C1.O=P(O)(O)O [rotigotine.H3PO4, rotigotine dihydrogen phosphate] , thanks.
14.4 mM

---

Experiment: Maximum (saturation) solubility in 10 mM citric buffer, HPLC assay
Type: physicochemical
Details: 10 mM citric buffer, pH 5, aqueous buffer, thermodynamic from solid, pH 5, 68 mM NaCl, n = 2-3; read-out: Solubility
measured_property: solubility at 48 h (mM)
Quick reminder: number only, in mM, skip the unit.

Need solubility at 48 h of CCCN(CCc1cccs1)[C@H]1CCc2c(O)cccc2C1.O=P(O)(O)O [rotigotine.H3PO4, rotigotine dihydrogen phosphate] , thanks.
43
